Here the recorded Activity is given for each entry.
Tested on: Rattus norvegicus
Assay: Analgesic activity in Sprague-Dawley rat brewer's yeast treated foot assessed as response threshold at 32 mg/kg, po
Type: functional

>>> reported_value("O=c1[nH]c2cccnc2n1Cc1ccc(F)cc1")
"<25 mm"
>>> reported_value("Cc1cccc(C)c1-n1nnc2cccnc21")
"25 mm"
>>> reported_value("Cc1cccc(-n2c(=O)[nH]c3cccnc32)n1")
"<25 mm"

Next compound, Activity to be filled in.
Q: Supply Activity measured with Rattus norvegicus for O=c1[nH]c2cccnc2n1-c1ccc(Cl)cc1Cl .
Ans: 25 mm

###

Reported Activity by item:
Tested on: Rattus norvegicus
Assay: Analgesic activity in Sprague-Dawley rat brewer's yeast treated foot assessed as response threshold at 32 mg/kg, po
Assay type: functional

>>> reported_value("CC(=O)c1ccc(-n2nnc3cccnc32)cc1")
"<25 mm"

Q: Answer with Activity of NC(=O)c1ccccc1-n1nnc2cccnc21 measured for Rattus norvegicus.
Ans: 25 mm

Q: Tell me its Activity on Rattus norvegicus: CN(C)c1ccccc1-n1c(=O)[nH]c2cccnc21
Ans: <25 mm

These measurements were taken from ChEMBL document CHEMBL3244164.
